Molecular target: GST-Dm-Relish (Drosophila melanogaster, UniProt Q94527 99-473)
Sequence: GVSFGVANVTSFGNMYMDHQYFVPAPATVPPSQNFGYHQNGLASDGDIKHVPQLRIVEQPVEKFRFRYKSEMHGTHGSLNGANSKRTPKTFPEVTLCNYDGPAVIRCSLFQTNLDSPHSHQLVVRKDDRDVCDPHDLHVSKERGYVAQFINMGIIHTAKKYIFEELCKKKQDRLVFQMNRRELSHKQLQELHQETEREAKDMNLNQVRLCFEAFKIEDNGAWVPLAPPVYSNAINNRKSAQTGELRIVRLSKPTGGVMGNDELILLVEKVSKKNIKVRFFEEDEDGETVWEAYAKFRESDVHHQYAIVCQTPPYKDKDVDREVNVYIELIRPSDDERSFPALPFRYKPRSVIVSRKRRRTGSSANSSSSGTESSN
Experiment: protein-binding microarray (PBM); PBM: ~300 nM protein, 6 mM HEPES pH 7.8, 80 mM KCl, 0.5 mM EDTA, 0.5 mM EGTA, 6% glycerol, 35 ng/ul poly-dIdC, 1% milk, 1 h, room temperature; Ap Aiptasia and Nv Nematostella (sea anemones) / Co Capsaspora / Aq Amphimedon (sponge) / Dm Drosophila / Hu human; RHD is the Rel homology domain; high values mean tight binding
Conditions: dsDNA, one strand shown
# Met = binding signal below 4 z-score (exclusive); Not met = binding signal at/above 4 z-score

# example entries with known answers
CCGATTAACATCAGGGACAGCCCTGATGTTAATCGGGTCTTGATTCGCTTGACGCTGCTG: Met
CCGATTAACATCAAAATCTCCCCTGATGTTAATCGGGTCTTGATTCGCTTGACGCTGCTG: Not met
CCGATTAACATCACAGCGTGAGGTGATGTTAATCGGGTCTTGATTCGCTTGACGCTGCTG: Met
CCGATTAACATCAATGTTCCCCCTGATGTTAATCGGGTCTTGATTCGCTTGACGCTGCTG: Not met
CCGATTAACATCAAGGGAAATTCTGATGTTAATCGGGTCTTGATTCGCTTGACGCTGCTG: Met

Q: Problem: For the sequence "CCGATTAACATCAGGGACATACCTGATGTTAATCGGGTCTTGATTCGCTTGACGCTGCTG" , is binding signal under 4 z-score?
Ans: Met

Q: Problem: For the sequence "CCGATTAACATCATCCCCGTGTCTGATGTTAATCGGGTCTTGATTCGCTTGACGCTGCTG" , is binding signal under 4 z-score?
Ans: Met

Q: Problem: For the sequence "CCGATTAACATCAGGGGTACCCCTGATGTTAATCGGGTCTTGATTCGCTTGACGCTGCTG" , is binding signal under 4 z-score?
Ans: Not met

This collection of values is drawn from paper PMC5700166.
